Value source: ChEMBL document CHEMBL1949657

Test system: PC-12
experiment description: Neurotrophic activity in rat PC12 cells assessed as neurite outgrowth at 1 to 10 uM after 24 hrs
Format: functional, cell-based
Activity calls are given as the source filed them. No rule for the calls is given here.
Please reply with one of these outcomes: active, inactive

Past entries and their recorded results:
CCOc1ccc(-c2cc(=O)c3ccc4ccccc4c3o2)cc1OCC inactive
O=c1c(O)c(-c2ccc(O)c(O)c2)oc2cc(O)ccc12 active
CC(C)Oc1cc(-c2ccc(O)c(O)c2)nc2ccccc12 active
Cc1cc2oc(-c3ccc(N4CCCC4)c(O)c3)c(O)c(=O)c2cc1C active
COc1cc(-c2ccc(N3CCCC3)cc2)nc2ccccc12 inactive
Cc1cc2oc(-c3ccc(O)c(O)c3)cc(=O)c2cc1C inactive
COc1cc(-c2ccc(O)cc2O)nc2ccccc12 inactive
COc1ccc(-c2oc3cc(C)c(C)cc3c(=O)c2O)cc1O inactive
Cc1cc2oc(-c3ccc(N4CCCC4)cc3)c(O)c(=O)c2cc1C active
O=c1c(O)c(-c2ccc(O)c(O)c2)oc2c1ccc1ccccc12 active

Okay, next one:
Query: Outcome? `COc1cc(-c2cc(OC)c3ccccc3n2)ccc1O`
Result: inactive
